B1: HDV Ribozyme (parent)
chain: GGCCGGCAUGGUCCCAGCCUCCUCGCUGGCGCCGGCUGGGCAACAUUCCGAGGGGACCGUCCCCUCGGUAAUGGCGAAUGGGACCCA

- Variants of: B1
- Measurement description: self-cleavage, relative activity (ratio to wild type); higher = more cleavage; co-transcriptional
Test readout: self-cleavage
Answer as a number with no unit attached.

| Query sequence | Number |
| --- | --- |
| GGCCGGCGUGGUCCCAGCCUCCUCGCUGGCCCCGGCUGGGCAACAUUCCGAGGGGACCGUCCCCUCGGUAAUGGCGAAUGGGACCCA [A8G G31C] | 0.145 |
| GGCCGGCAUGGUCCAAGCCACCUCGCUGGCGCCGGCUGGGCAACAUUCCGAGGGGACCGUCCCCUCGGUAAUGGCGAAUGGGACCCA [C15A U20A] | 0.0573 |

Inquiry: Item GGCCGGCAUGGUCCCAGCCUCCUCGCUGGCGCCGGCUGGGCAACAUUCCGAGGGAACCGUCCCCUCGGUAAUGGCGAAUGGGACCAA [G55A C86A] has what recorded self-cleavage?
Reply text: 0.978

Inquiry: Item GGCCGGCAUGGUGCCAGCCUCCUCGCUGGCGCCGGCUGGGCAACAUUCCGAGGGGACCGUCCACUCGGUAAUGGCGAAUGGGACCCA [C13G C63A] has what recorded self-cleavage?
Reply text: 0.0906

Inquiry: Item GGCCGGCAUGGUCCCAGCCUCCUCGCUGUCGCCGGCUGGGCAACAUUCCGAGGGUACCGUCCCCUCGGUAAUGGCGAAUGGGACCCA [G29U G55U] has what recorded self-cleavage?
Reply text: 0.0944

Inquiry: Item GCCCGGCAUGGUCCCAGCCUCCUCGCUGGCGCCGGCUGGGCAAUAUUCCGAGGGGACCGUCCCCUCGGUAAUGGCGAAUGGGACCCA [G2C C44U] has what recorded self-cleavage?
Reply text: 0.0453

Inquiry: Item GGCCGGCAUGGCCCCAGCCUCCUCGCUGGCGCCGGCUGGGCAACAUUCCGAGGGGACCGACCCCUCGGUAAUGGCGAAUGGGACCCA [U12C U60A] has what recorded self-cleavage?
Reply text: 0.145

Provenance of the data: the RNAGym collection of RNA variant scans (doi:10.7554/elife.80360)
